Test system: HeLa
assay: Cytotoxicity against human HeLa cells at 100 ug/ml after 24 hrs by MTT assay relative to control
Type: functional
The source made the active and inactive calls. No cut-off for these calls is given here. Where a SMILES comes first, the peptide text is derived from it.
endpoint: Activity

compound	endpoint	value
CC[C@H](C)[C@H](NC(=O)[C@H](CCCCN)NC(=O)[C@@H](N)CCCCN)C(=O)N[C@@H](CCSC)C(=O)N[C@@H](CCCNC(=N)N)C(=O)N[C@H](C(=O)N[C@@H](Cc1ccccc1)C(=O)N[C@@H](CC(C)C)C(=O)N[C@@H](CCCNC(=N)N)C(=O)N[C@@H](CCCNC(=N)N)C(N)=O)[C@@H](C)O (H-KKIMRTFLRR-NH2)	Activity	inactive
CC[C@H](C)[C@H](NC(=O)[C@H](CCCCN)NC(=O)[C@H](CCCCN)NC(=O)[C@H](CO)NC(=O)[C@@H](NC(=O)CNC(=O)[C@H](CCCNC(=N)N)NC(=O)[C@H](CC(C)C)NC(=O)[C@@H](NC(=O)[C@@H](N)CCCCN)[C@@H](C)CC)C(C)C)C(=O)N[C@@H](CCSC)C(=O)N[C@@H](CCCNC(=N)N)C(=O)N[C@@H](CCCNC(=N)N)C(=O)N[C@H](C(=O)N[C@@H](CC(C)C)C(=O)N[C@H](C(=O)NCC(=O)N[C@@H](CCCCN)C(=O)N[C@@H](CCCCN)C(N)=O)[C@@H](C)O)[C@@H](C)CC (H-KILRGVSKKIMRRILTGKK-NH2)	Activity	inactive
CC[C@H](C)[C@H](NC(=O)[C@H](CCCCN)NC(=O)[C@H](CCCCN)NC(=O)[C@H](CO)NC(=O)[C@@H](NC(=O)[C@@H](N)CCCCN)[C@@H](C)CC)C(=O)N[C@@H](CCSC)C(=O)N[C@@H](CCCNC(=N)N)C(=O)N[C@H](C(=O)N[C@@H](Cc1ccccc1)C(=O)N[C@@H](CC(C)C)C(=O)N[C@@H](CCCNC(=N)N)C(=O)N[C@@H](CCCNC(=N)N)C(N)=O)[C@@H](C)O (H-KISKKIMRTFLRR-NH2)	Activity	6.4%
CC[C@H](C)[C@H](NC(=O)[C@H](CCCCN)NC(=O)[C@H](CCCCN)NC(=O)[C@H](CO)NC(=O)[C@@H](NC(=O)CNC(=O)[C@H](CCCNC(=N)N)NC(=O)[C@H](CC(C)C)NC(=O)[C@@H](NC(=O)[C@@H](N)CCCCN)[C@@H](C)CC)C(C)C)C(=O)N[C@@H](CCSC)C(=O)N[C@@H](CCCNC(=N)N)C(=O)N[C@H](C(=O)N[C@@H](Cc1ccccc1)C(=O)N[C@@H](CC(C)C)C(=O)N[C@@H](CCCNC(=N)N)C(=O)N[C@@H](CCCNC(=N)N)C(N)=O)[C@@H](C)O (H-KILRGVSKKIMRTFLRR-NH2)	Activity	inactive
CC[C@H](C)[C@H](NC(=O)[C@H](CCCNC(=N)N)NC(=O)[C@H](CCCCN)NC(=O)[C@H](CO)NC(=O)[C@@H](NC(=O)CNC(=O)[C@H](CC(C)C)NC(=O)[C@@H](NC(=O)[C@@H](N)CCCCN)[C@@H](C)CC)C(C)C)C(=O)N[C@@H](CC(C)C)C(=O)N[C@H](C(=O)NCC(=O)N[C@@H](CCCCN)C(=O)N[C@@H](CCCCN)C(N)=O)[C@@H](C)O (H-KILGVSKRILTGKK-NH2)	Activity	inactive

====

This listing pairs compounds with measured MIC.
System: Escherichia coli
assay: Antibacterial activity against Escherichia coli ATCC 25922 after 24 hrs in Mueller-Hinton broth medium
Assay type: functional
conditions_used: ATCC 25922, 24 h
Where a SMILES comes first, the peptide text is derived from it.
endpoint: MIC (µg/mL)

compound	relation_operator	value
CC[C@H](C)[C@H](NC(=O)[C@H](CCCCN)NC(=O)[C@H](CCCCN)NC(=O)[C@H](CO)NC(=O)[C@@H](NC(=O)CNC(=O)[C@H](CCCNC(=N)N)NC(=O)[C@H](CC(C)C)NC(=O)[C@@H](NC(=O)[C@@H](N)CCCCN)[C@@H](C)CC)C(C)C)C(=O)N[C@@H](CCSC)C(=O)N[C@@H](CCCNC(=N)N)C(=O)N[C@H](C(=O)N[C@@H](Cc1ccccc1)C(=O)N[C@@H](CC(C)C)C(=O)N[C@@H](CCCNC(=N)N)C(=O)N[C@@H](CCCNC(=N)N)C(N)=O)[C@@H](C)O (H-KILRGVSKKIMRTFLRR-NH2)	=	32
CC[C@H](C)[C@H](NC(=O)[C@H](CCCNC(=N)N)NC(=O)[C@H](CCCCN)NC(=O)[C@H](CO)NC(=O)[C@@H](NC(=O)[C@@H](N)CCCCN)[C@@H](C)CC)C(=O)N[C@@H](CC(C)C)C(=O)N[C@H](C(=O)NCC(=O)N[C@@H](CCCCN)C(=O)N[C@@H](CCCCN)C(=O)O)[C@@H](C)O (H-KISKRILTGKK-OH)	>	256
CC[C@H](C)[C@H](NC(=O)[C@H](CCCNC(=N)N)NC(=O)[C@H](CCCCN)NC(=O)[C@H](CO)NC(=O)[C@@H](NC(=O)CNC(=O)[C@H](CC(C)C)NC(=O)[C@@H](NC(=O)[C@@H](N)CCCCN)[C@@H](C)CC)C(C)C)C(=O)N[C@@H](CC(C)C)C(=O)N[C@H](C(=O)NCC(=O)N[C@@H](CCCCN)C(=O)N[C@@H](CCCCN)C(N)=O)[C@@H](C)O (H-KILGVSKRILTGKK-NH2)	>	256
CC[C@H](C)[C@H](NC(=O)[C@H](CCCCN)NC(=O)[C@H](CCCCN)NC(=O)[C@H](CO)NC(=O)[C@@H](NC(=O)CNC(=O)[C@H](CCCNC(=N)N)NC(=O)[C@H](CC(C)C)NC(=O)[C@@H](NC(=O)[C@@H](N)CCCCN)[C@@H](C)CC)C(C)C)C(=O)N[C@@H](CCSC)C(=O)N[C@@H](CCCNC(=N)N)C(=O)N[C@@H](CCCNC(=N)N)C(=O)N[C@H](C(=O)N[C@@H](CC(C)C)C(=O)N[C@H](C(=O)NCC(=O)N[C@@H](CCCCN)C(=O)N[C@@H](CCCCN)C(N)=O)[C@@H](C)O)[C@@H](C)CC (H-KILRGVSKKIMRRILTGKK-NH2)	=	32
CC[C@H](C)[C@H](NC(=O)[C@H](CCCNC(=N)N)NC(=O)[C@H](CCCCN)NC(=O)[C@H](CO)NC(=O)[C@@H](NC(=O)CNC(=O)[C@H](CCCNC(=N)N)NC(=O)[C@H](CC(C)C)NC(=O)[C@@H](NC(=O)[C@@H](N)CCCCN)[C@@H](C)CC)C(C)C)C(=O)N[C@@H](CC(C)C)C(=O)N[C@H](C(=O)NCC(=O)N[C@@H](CCCCN)C(=O)N[C@@H](CCCCN)C(N)=O)[C@@H](C)O (H-KILRGVSKRILTGKK-NH2)	>	256

====

Tested on: Escherichia coli
assay: Antibacterial activity against Escherichia coli K12 ATCC 23716 after 24 hrs in Mueller-Hinton broth medium
Type: functional
conditions_used: K12, 24 h
Where a SMILES comes first, the peptide text is derived from it.
// reported MIC per item
endpoint: MIC (µg/mL)

molecule	unit_abbreviation	relation_operator	value
CC[C@H](C)[C@H](N)C(=O)N[C@@H](CO)C(=O)N[C@@H](CCCCN)C(=O)N[C@@H](CCCNC(=N)N)C(=O)N[C@H](C(=O)N[C@@H](CC(C)C)C(=O)N[C@H](C(=O)NCC(=O)N[C@@H](CCCCN)C(=O)N[C@@H](CCCCN)C(=O)O)[C@@H](C)O)[C@@H](C)CC (H-ISKRILTGKK-OH)	µg/mL	>	256
CC[C@H](C)[C@H](NC(=O)[C@H](CCCCN)NC(=O)[C@H](CCCCN)NC(=O)[C@H](CO)NC(=O)[C@@H](NC(=O)CNC(=O)[C@H](CCCNC(=N)N)NC(=O)[C@H](CC(C)C)NC(=O)[C@@H](NC(=O)[C@@H](N)CCCCN)[C@@H](C)CC)C(C)C)C(=O)N[C@@H](CCSC)C(=O)N[C@@H](CCCNC(=N)N)C(=O)N[C@H](C(=O)N[C@@H](Cc1ccccc1)C(=O)N[C@@H](CC(C)C)C(=O)N[C@@H](CCCNC(=N)N)C(=O)N[C@@H](CCCNC(=N)N)C(N)=O)[C@@H](C)O (H-KILRGVSKKIMRTFLRR-NH2)	µg/mL	=	8
CC[C@H](C)[C@H](NC(=O)[C@H](CCCCN)NC(=O)[C@H](CCCCN)NC(=O)[C@H](CO)NC(=O)[C@@H](NC(=O)[C@@H](N)CCCCN)[C@@H](C)CC)C(=O)N[C@@H](CCSC)C(=O)N[C@@H](CCCNC(=N)N)C(=O)N[C@H](C(=O)N[C@@H](Cc1ccccc1)C(=O)N[C@@H](CC(C)C)C(=O)N[C@@H](CCCNC(=N)N)C(=O)N[C@@H](CCCNC(=N)N)C(N)=O)[C@@H](C)O (H-KISKKIMRTFLRR-NH2)	µg/mL	=	16
CC[C@H](C)[C@H](NC(=O)[C@H](CCCCN)NC(=O)[C@@H](N)CCCCN)C(=O)N[C@@H](CCSC)C(=O)N[C@@H](CCCNC(=N)N)C(=O)N[C@H](C(=O)N[C@@H](Cc1ccccc1)C(=O)N[C@@H](CC(C)C)C(=O)N[C@@H](CCCNC(=N)N)C(=O)N[C@@H](CCCNC(=N)N)C(N)=O)[C@@H](C)O (H-KKIMRTFLRR-NH2)	µg/mL	=	256
CC[C@H](C)[C@H](NC(=O)[C@H](CCCNC(=N)N)NC(=O)[C@H](CCCCN)NC(=O)[C@H](CO)NC(=O)[C@@H](NC(=O)CNC(=O)[C@H](CCCNC(=N)N)NC(=O)[C@H](CC(C)C)NC(=O)[C@@H](NC(=O)[C@@H](N)CCCCN)[C@@H](C)CC)C(C)C)C(=O)N[C@@H](CC(C)C)C(=O)N[C@H](C(=O)NCC(=O)N[C@@H](CCCCN)C(=O)N[C@@H](CCCCN)C(N)=O)[C@@H](C)O (H-KILRGVSKRILTGKK-NH2)	µg/mL	>	128
